# Ki per record follows
Target: Human CXCR4 transfected HEK293 cells (Homo sapiens, UniProt P61073)
Sequence (P61073 whole entry): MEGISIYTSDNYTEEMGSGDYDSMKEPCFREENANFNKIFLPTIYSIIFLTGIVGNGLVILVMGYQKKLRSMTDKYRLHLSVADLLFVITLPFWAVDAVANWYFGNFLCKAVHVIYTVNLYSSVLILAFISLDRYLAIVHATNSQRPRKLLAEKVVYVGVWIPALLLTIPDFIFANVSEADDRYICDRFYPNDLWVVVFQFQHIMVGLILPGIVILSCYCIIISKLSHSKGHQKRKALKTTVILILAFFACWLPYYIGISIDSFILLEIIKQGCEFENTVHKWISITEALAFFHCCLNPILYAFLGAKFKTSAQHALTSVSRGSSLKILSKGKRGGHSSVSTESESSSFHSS
Experiment: CXCR4 functional calcium assay (calcium flux FLIPR, antagonism of SDF1 response)
Conditions: CXCR4 functional activity, antagonism of SDF1 (EC50 concentration), read-out: CXCR4 fKi

Solved cases below.
[[record]]
compound = "COc1ccc2nc(-c3cccc(N4CCCN(C5CCN(C(C)C)CC5)CC4)n3)[nH]c2c1"
value_reported = "20 to 100 nM"

[[record]]
compound = "CC(C)N1CCC(N2CCCN(c3cccc(C(=O)NCc4cscn4)n3)CC2)CC1"
value_reported = "20 to 100 nM"

[[record]]
compound = "CCc1cnc(-c2cccc(N3CCCN(C4CCN([C@H](C)CC)CC4)CC3)n2)[nH]1"
value_reported = "< 20 nM"

[[record]]
compound = "CC(C)N1CCC(N2CCCN(c3cccc(-c4noc(-c5ccccn5)n4)n3)CC2)CC1"
value_reported = "100 to 500 nM"

[[record]]
compound = "CC(C)N1CCC(N2CCCN(c3cccc(-c4nc5ccc(F)cc5[nH]4)n3)CC2)CC1"
value_reported = "20 to 100 nM"

[[record]]
compound = "O=C(NCC1CC1)c1cccc(N2CCCN(C3CCN(C4CCCC4F)CC3)CC2)n1 (centres unmarked)"
value_reported = "20 to 100 nM"

[[record]]
compound = "CC(C)N1CCC(N2CCCN(c3cccc(C(=O)NCC(F)F)n3)CC2)CC1"
value_reported = "100 to 500 nM"

[[record]]
compound = "CC(C)N1CCC(N2CCCN(c3cccc(-c4c[nH]c5ncccc45)n3)CC2)CC1"
value_reported = "100 to 500 nM"

[[record]]
compound = "CC(C)N1CCC(N2CCCN(c3cccc(-c4ncc(C(C)(C)C)[nH]4)n3)CC2)CC1"
value_reported = "100 to 500 nM"

[[record]]
compound = "CC(C)N1CCC(N2CC3CCC2CN(c2cccc(C(=O)Nc4ccncc4)n2)C3)C(F)C1 (centres unmarked)"
value_reported = "100 to 500 nM"


Ki reading for O=C(NCC1CC1)c1cccc(N2CCCN(C3CCN(Cc4ccc(F)cc4)CC3)CC2)n1 : 100 to 500 nM

// field: Ki; key: O=C(NCC1CC1)c1cccc(N2CCCN(C3CCN(C(CF)CF)CC3)CC2)n1 ; value = 100 to 500 nM

Query Cc1ccnc(N2CCCN(C3CCN(Cc4ccccc4Cl)CC3)CC2)c1 yields Ki of 100 to 500 nM

The reported value for CC(C)N1CCC(N2CCCN(c3cccc(C(=O)NCc4cccnc4)n3)CC2)C(F)C1 (centres unmarked) in terms of Ki is 100 to 500 nM

So, O=C(NCCCn1ccnc1)c1cccc(N2CCCN(C3CCN(Cc4ccccc4Cl)CC3)CC2)n1 ? Its Ki was 100 to 500 nM

What the record says about C[C@H](c1ccc(F)cc1)N1CCC(N2CCCN(c3cccc(C(=O)NCC4CC4)n3)CC2)CC1 : Ki is 100 to 500 nM

Please fill in: Ki reported for CC(C(F)F)N1CCC(N2CCCN(c3cccc(C(=O)NCC4CC4)n3)CC2)CC1 (centres unmarked) = 100 to 500 nM

Entry [2H]C1([2H])CCN(C2CCN(Cc3ccc(F)cc3Cl)CC2)CCN1c1cccc(C(=O)Nc2ccncc2)n1 , Ki reported as < 20 nM

Ki in this record for CCCCNC(=O)c1cccc(N2CCCN(C3CCN(C(C)C)CC3)CC2)n1 : 20 to 100 nM

In plain terms, [2H]C1([2H])CCN(c2cccc(C(=O)Nc3ccncc3)n2)CC(C)N1C1CCN(Cc2ccccc2Cl)CC1 (centres unmarked) has a documented Ki of < 20 nM

Entry O=C(NCc1ncco1)c1cccc(N2CCCN(C3CCN(Cc4ccccc4Cl)CC3)CC2)n1 — recorded Ki = 20 to 100 nM

The value of Ki measured for the compound O=C(NCC1CC1)c1cccc(N2CCC(NCc3ccccc3Cl)CC2)n1 turned out to be 500 to 1000 nM

Notebook: Cc1cc(NC(=O)c2cccc(N3CCCN(C4CCN(C(C)C)CC4)CC3)n2)ccn1 , Ki read as < 20 nM

Where these numbers come from: patent US10995091B2
